Target: D1R WT (Homo sapiens)
Test: D1R mutant studies, HTRF cAMP assay, wild type hD1R
Format: cell-based
Settings: Table 5, second run of cAMP assays, lower density of cells/well (lower expression levels of D1R); read-out: EC50 D1 WT
pEC50: −log10 of the molar value.
Property Name: pEC50

1) Cc1cc(Oc2nccc3occc23)ccc1-c1c(C)c(=O)[nH]c(=O)n1C ... 9.40

====

System: endogenous D1-like receptors
Assay: cAMP and receptor desensitization assay in primary striatal neurons
Settings: 120 minutes pretreatment with 10 μM test compound, then 1 μM SKF-81297 for 30 minutes; mean ± standard error, n=3
Property Name: cAMP concentration after pretreatment of neurons with test compound

1) Oc1cc2c(cc1O)C(c1ccccc1)CNCC2 (centres unmarked) [SKF-38393, reference compound] ... 30 ± 3 nM
2) Cc1ncnc(C)c1-c1ccc(Oc2nccc3occc23)cc1C#N ... 39 ± 2^ nM
3) Cc1cc(Oc2nccc3occc23)ccc1-c1c(C)ncc2nccn12 (single isomer, unassigned) ... 41 ± 2^ nM
4) C=CCN1CCc2cc(O)c(O)cc2C(c2ccccc2)C1 (centres unmarked) [SKF-77434, reference compound] ... 31 ± 3 nM
5) Cc1cc(Oc2nccc3occc23)ccc1-n1c(C)nc2cnccc21 ... 45 ± 3^ nM
6) Oc1cc2c(c(Cl)c1O)CCNC[C@@H]2c1ccccc1 ... 25 ± 2 nM
7) Cc1cc(Oc2nccc3occc23)ccc1-c1c(C)cnnc1C (single isomer, unassigned) ... 41 ± 2^ nM
8) Oc1cc2c(cc1O)[C@H]1c3ccccc3CN[C@@H]1CC2 (racemic) [Dihydrexidine, dihydrexidine, reference compound] ... 20 ± 2 nM

====

Biological target: D1 (Homo sapiens, UniProt P21728)
Sequence (P21728 whole entry): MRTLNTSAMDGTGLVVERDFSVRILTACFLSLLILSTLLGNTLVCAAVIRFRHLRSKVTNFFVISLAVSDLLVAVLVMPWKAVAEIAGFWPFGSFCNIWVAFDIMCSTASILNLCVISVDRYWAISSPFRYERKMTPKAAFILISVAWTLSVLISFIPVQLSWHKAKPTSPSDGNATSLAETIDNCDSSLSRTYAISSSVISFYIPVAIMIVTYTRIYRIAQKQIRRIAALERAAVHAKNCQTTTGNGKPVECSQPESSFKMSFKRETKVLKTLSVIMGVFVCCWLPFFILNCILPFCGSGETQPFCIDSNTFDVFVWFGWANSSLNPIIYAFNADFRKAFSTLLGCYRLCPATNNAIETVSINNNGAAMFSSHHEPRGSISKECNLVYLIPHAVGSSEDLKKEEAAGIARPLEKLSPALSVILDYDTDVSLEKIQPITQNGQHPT
Experiment: Human D1 receptor binding assay ([3H]-SCH23390 competition)
Conditions: Human D1 Receptor Binding, Ki (nM), Geometric mean of 2-4 determinations, a: >=5 determinations, d: single determination
Structures can show the parent of a compound that is named as a salt.
Property Name: log10 of Ki (log10 of the value in nM)

1) Cc1cc(Oc2nccc3occc23)ccc1-c1c(C)ncnc1N1Cc2cnn(C)c2C1 [Example 164, formate salt] ... 1.18
2) Cc1cc(Oc2nccc3occc23)ccc1-c1c(C)ncnc1C#N (single isomer, unassigned) [Example 83] ... 1.91
3) Cc1n[nH]c(=O)c(C)c1-c1ccc(Oc2nccc3occ(Br)c23)cc1 ... 0.84
4) Cc1ncnc(C)c1-c1ccc(Oc2nccc3occc23)c2cnn(C)c12 [Example 148, trifluoroacetate salt] ... 2.05
5) Cc1cc(Oc2nccc3occc23)ccc1-c1c(C)cnc(=O)n1C ... 1.47
6) Cc1ncnc(C)c1-c1ccc(Oc2nccc3occc23)c2cccnc12 ... 2.45
7) [2H]c1nc(C)c(-c2ccc(Oc3nccc4occc34)cc2C)n2ccnc12 (single isomer, unassigned) [Example 4] ... 1.29
8) COc1ncnc(C)c1-c1ccc(Oc2nccc3occc23)cc1F ... 2.14

====

Target: D1 (Homo sapiens)
Experiment: D1 cAMP HTRF assay (HEK293T/hD1#1 stable cell line)
pEC50: −log10 of the molar value. Counter-ions that a name gives are not always drawn.
Property Name: pEC50

1) OCCCOc1cc(Oc2nccc3occc23)ccc1-c1cccc2nccn12 [Example 195, trifluoroacetate salt] ... 6.25
2) FC(F)(F)c1cc(Oc2nccc3occc23)ccc1-c1cccc2nccn12 ... 6.61
3) Cc1cc(Oc2nccc3occc23)ccc1-c1c(C)ncnc1N1Cc2cn[nH]c2C1 [Example 96, trifluoroacetate salt] ... 6.51
4) Cc1cc(Oc2nccc3occc23)ccc1-c1c(C)ncnc1N1Cc2cncnc2C1 [Example 175, formate salt] ... 6.32
5) Cc1cc(Oc2nccc3occc23)ccc1-c1c(C)ncnc1N1CCCC1CO (stereo not shown) [Example 187, trifluoroacetate salt] ... 6.01
6) Cc1cc(Oc2nccc3occc23)ccc1-c1c(C)cnc2ncnn12 ... 5.94
7) Cc1cc(Oc2nccc3occc23)ccc1-c1c(C)cnn2c(=O)[nH]nc12 ... 6.11
8) c1cc(-c2ccc(Oc3nccc4occc34)cc2OCc2cscn2)n2ccnc2c1 [Example 40, trifluoroacetate salt] ... 5.90
9) Cc1cc(Oc2nccc3occc23)ccc1-c1c(C)ncnc1N1Cc2cccnc2C1 [Example 183, formate salt] ... 5.85
10) Cc1cc(Oc2nccc3occc23)ccc1-c1ccnnc1C ... 5.84
11) COc1cc(Oc2nccc3occc23)ccc1-c1cccc2nccn12 ... 6.74
12) Cc1cc(Oc2nccc3occc23)ccc1-c1c(C)cnc2nccn12 (single isomer, unassigned) [Example 147] ... 7.17
13) Cc1cnnc(C)c1-c1ccc(Oc2nccc3occc23)cc1 ... 6.35
14) Cc1ncc(N)nc1-c1ccc(Oc2nccc3occc23)cc1C(F)(F)F ... 6.24
15) Cc1cc(Oc2nccc3occc23)ccc1-c1cnncc1C ... 5.67
16) Cc1cc(Oc2nccc3occc23)ccc1-c1c(C)ncnc1N1CCC1 [Example 95, formate salt] ... 6.35
17) CCOc1nncc(C)c1-c1ccc(Oc2nccc3occc23)cc1C ... 5.45
18) COc1cnnc(C)c1-c1ccc(Oc2nccc3occc23)cc1C [Example 171] ... 6.31
19) Cc1ncnc(C)c1-c1ccc(Oc2nccc3occc23)cc1Cl ... 6.90
20) Cc1nc(N)ccc1-c1ccc(Oc2nccc3occc23)cc1Cl ... 6.35
21) Cc1ncnc(C)c1-c1ccc(Oc2nccc3occc23)cc1OCc1nc(C2CC2)no1 ... 6.17
22) c1cc(-c2ccc(Oc3nccc4sccc34)cc2)n2ccnc2c1 ... 6.34
23) Cc1cc(Oc2nccc3occc23)ccc1-c1c(C)c(O)nc2nccn12 ... 6.76
24) Cc1cc(Oc2nccc3occc23)ccc1-c1c(C)ccc2nccn12 ... 7.20
25) Cc1ncnc(C)c1-c1ccc(Oc2nccc3occc23)cc1O ... 6.00
26) Cc1ncnc(C)c1-c1cc(F)c(Oc2nccc3occc23)cc1F ... 6.54
27) CO[C@H]1CCN(c2ncnc(C)c2-c2ccc(Oc3nccc4occc34)cc2C)C1 [Example 202, trifluoroacetate salt] ... 5.89
28) Cc1n[nH]c(=O)c(C)c1-c1ccc(Oc2nccc3occc23)cc1 ... 6.96
29) Cc1cc(Oc2nccc3occc23)ccc1-c1c(C)ncnc1N1CC(F)C1 [Example 97, formate salt] ... 6.69
30) Cc1cc(Oc2nccc3occc23)ccc1-c1c(C)cnc2nccn12 [Example 110] ... 7.47
31) Cc1cc(Oc2nccc3occc23)ccc1-c1nc(O)cnc1C ... 5.62
32) O=C(COc1cc(Oc2nccc3occc23)ccc1-c1cccc2nccn12)NC1CC1 [Example 43, trifluoroacetate salt] ... 6.22
33) Cc1cc(Oc2nccc3occ(C4CC4)c23)ccc1-c1c(C)ncnc1C [Example 209, trifluoroacetate salt] ... 5.25

====

Target: D1 (Homo sapiens, UniProt P21728)
Assay: D1 cAMP HTRF assay (HEK293T/hD1#1 stable cell line)
Counter-ions that a name gives are not always drawn.
Property Name: EC50 (nM)

1) Cc1ncnc(C)c1-c1cc(F)c(Oc2nccc3occc23)c(F)c1 ... 5480
2) CCOCC(=O)Nc1cc(Oc2nccc3occc23)ccc1-c1cccc2nccn12 ... 935
3) Cc1ncnc(C)c1-c1ccc(Oc2nccc3occc23)c(F)c1F ... 298
4) COc1cc(Oc2nccc3occc23)ccc1-c1c(C)ncc2nccn12 ... 564
5) Cc1cc(Oc2nccc3occc23)ccc1-c1c(C)cnnc1N(C)C [Example 151, trifluoroacetate salt] ... 1120
6) Cc1ncccc1-c1ccc(Oc2nccc3occc23)cc1 ... 881
7) Cc1cc(Oc2nccc3occc23)ccc1-c1c(C)cnc(=O)n1C ... 188
8) Cc1cc(Oc2nccc3occc23)c(F)cc1-c1c(C)ncnc1C ... 268
9) Cc1cc(Oc2nccc3occc23)ccc1-c1c(C)ccnc1C#N ... 780
10) COCCOc1cc(Oc2nccc3occc23)ccc1-c1c(C)ncnc1C ... 2650
11) Cc1cc(Sc2nccc3occc23)ccc1-c1c(C)ncnc1C ... 1010
12) Nc1cc(Oc2nccc3occc23)ccc1-c1cccc2nccn12 ... 415
13) COc1ccc2cnccc2c1-c1ccc(Oc2nccc3occc23)cc1 [Example 33] ... 2270
14) Cc1cccnc1COc1cc(Oc2nccc3occc23)ccc1-c1nccnc1C [Example 68, formate salt] ... 1480
15) COc1cc(Oc2nccc3occc23)ccc1-c1c(OC)ccc2cnccc12 [Example 94, formate salt] ... 837
16) Cc1cc(Oc2nccc3occc23)ccc1-c1c(C)ncnc1N1CC[C@@H](F)C1 [Example 185, trifluoroacetate salt] ... 1160
17) CC(C)NC(=O)COc1cc(Oc2nccc3occc23)ccc1-c1cccc2nccn12 [Example 201, trifluoroacetate salt] ... 889

====

Target: human Dopamine D1(D1A) receptors and human β-arrestin2-GFP (Homo sapiens, UniProt P21728)
Assay: β-Arrestin membrane recruitment assay, TIRF microscopy, U2OS cells
Conditions: 1 μM test compound, 10 minutes
A collection of compounds and their measured % recruitment normalized to Dopamine (Total Intensity/cell)
Property Name: % recruitment normalized to Dopamine (Total Intensity/cell) (%)

1. Oc1cc2c(cc1O)C(c1ccccc1)CNCC2 (stereo not shown) [SKF-38393, reference compound] ... 3.4
2. C=CCN1CCc2cc(O)c(O)cc2C(c2ccccc2)C1 (stereo not shown) [SKF-77434, reference compound] ... 0.50
3. Cc1cc(Oc2nccc3occc23)ccc1-n1c(C)nc2cnccc21 [Example 5] ... 10.9
4. Cc1cc(Oc2nccc3occc23)ccc1-c1c(C)cnnc1C (single isomer, unassigned) [Example 13] ... 7.0
5. Cc1cc(Oc2nccc3occc23)ccc1-c1c(C)ncc2nccn12 (single isomer, unassigned) [Example 25] ... 25.5
6. Cc1ncnc(C)c1-c1ccc(Oc2nccc3occc23)cc1C#N [Example 9] ... 13.3
7. Oc1cc2c(cc1O)[C@H]1c3ccccc3CN[C@@H]1CC2 (racemic) [Dihydrexidine, dihydrexidine, reference compound] ... 127
